# Test system: A498 renal
# assay_text: NCI tumour cell line growth inhibition, 48 h
quantity: GI50

CC1(C)Cc2c(Br)c(Br)c(Br)c(OCC(O)CN3CCN(c4ccccn4)CC3)c2O1 (configuration not stated)    14.8 µM
COc1c(N2CCN(CN3C(=O)C(=O)c4cc(Cl)ccc43)C(C)C2)c(F)cc2c(=O)c(C(=O)O)cn(C3CC3)c12 (configuration not stated)    11.9 µM
Cc1nc2cc(Nc3nc(Nc4ccc(F)cc4)nc(N4CCOCC4)n3)ccc2n1Cc1ccccc1    1.3 µM
COc1ccc(C(=O)c2sc3nc(-c4cccs4)ccc3c2N)cc1OC    2 µM
O=C(O)/C=C/c1c[nH]c(=O)[nH]c1=O    > 500 µM
NC(=O)c1sc(-n2cnc3cc(C(F)(F)F)ccc32)cc1OCc1ccccc1Br    > 25 µM

Query molecule follows.
Requested read-out: GI50. Entry: Nc1nc(N)c2nc3c(nc2n1)CCCCCCCCCC3 6.9 µM

====

# System: M14 melanoma
# assay_text: NCI tumour cell line growth inhibition, 48 h; in the data active = GI50 below about 0.43 µM; inactive = the rest
I would appreciate it if you answered using one of these outcomes: TRUE for active, FALSE for inactive

Answered examples (5):
O=C1N(Cc2ccccc2Cl)c2ccccc2C12NN=C(c1cccc(Cl)c1)S2 (stereo not given)    FALSE
CN(C)c1ccc(/C=N/S(=O)(=O)c2ccc(-n3c(-c4ccccc4)nc4c(Br)cc(Br)cc4c3=O)cc2)cc1    FALSE
CC1SC2(CCCCC2)N(NC(=O)c2[nH]c3ccc(Br)cc3c2-c2ccccc2)C1=O (stereo not given)    FALSE
Cc1[nH]c2cc(F)ccc2c1-c1nc2c3cccnc3c3ncccc3c2[nH]1    TRUE
NC(=O)c1sc(-n2cnc3cc(C(F)(F)F)ccc32)cc1OCc1ccccc1Br    FALSE

How was CC(C)(C)OC(=O)NCc1cccc(N=C=S)c1 classified in this test? FALSE

How was CCCCCCNCc1cc(C(C)(C)C)cc(CNCCCCCC)c1O classified in this test? FALSE

How was CC1(C)Cc2c(Br)c(Br)c(Br)c(OCC(O)CN3CCN(c4ccccn4)CC3)c2O1 (stereo not given) classified in this test? FALSE

How was COc1cnc2c(c1)C(=O)c1c-2n(CCCN2CCC(O)CC2)c(=O)c2cc(Cl)ccc12 classified in this test? TRUE

How was CCSC[C@@H]1C[C@](O)(c2ccc(F)cc2)[C@@H](c2ccc(F)cc2)O1 classified in this test? FALSE

====

Could you please report measured TGI for the items listed next?
# Test system: HOP-62 NSCLC
# assay_text: NCI tumour cell line growth inhibition, 48 h

Please review the entries below; each comes with its answer.
O=c1[nH]c(NCc2ccc(Cl)cc2)nc2nc[nH]c12    > 100 µM
O=c1c(Cc2ccc(Cl)cc2)nnc2sc(-c3ccc(-c4ccc(Cl)cc4Cl)o3)nn12    > 100 µM
CC(=O)Nc1n[n+]([O-])c2cc(C)ccc2[n+]1[O-]    11.4 µM
CCCCCCCCCCCc1c(O)c(=O)c2c(oc3c(=O)c(CCCCCCCCCCC)c(O)c(=O)c3n2-c2ccc(N(C)C)cc2)c1=O    45.9 µM
Cc1nc2cc(Nc3ccccc3C(=O)O)ccc2s1    > 100 µM

For every listed record, write down its TGI.
1. CC(=O)/C=C/c1ccc(OCc2ccc(Cl)cc2)cc1
2. Cc1cc2nc3c(C#N)c4c(c(-c5ccc(Cl)cc5)n3c2cc1C)CCC4
3. Brc1cccc(C2ON=C(c3ccccc3)N2C23CC4CC(CC(C4)C2)C3)c1 (stereo unspecified)

1. > 1000 µM
2. 46.2 µM
3. > 10 µM
